biological target: Bromodomain-containing protein 7 (Homo sapiens, UniProt Q9NPI1); test: Displacement of FAM-labeled BI-FAMb from N-terminal His TEV-tagged human recombinant BRD7 bromodomain expressed in Escherichia coli BL21(DE3) by competitive fluorescence polarization assay
Sequence (Q9NPI1 whole entry): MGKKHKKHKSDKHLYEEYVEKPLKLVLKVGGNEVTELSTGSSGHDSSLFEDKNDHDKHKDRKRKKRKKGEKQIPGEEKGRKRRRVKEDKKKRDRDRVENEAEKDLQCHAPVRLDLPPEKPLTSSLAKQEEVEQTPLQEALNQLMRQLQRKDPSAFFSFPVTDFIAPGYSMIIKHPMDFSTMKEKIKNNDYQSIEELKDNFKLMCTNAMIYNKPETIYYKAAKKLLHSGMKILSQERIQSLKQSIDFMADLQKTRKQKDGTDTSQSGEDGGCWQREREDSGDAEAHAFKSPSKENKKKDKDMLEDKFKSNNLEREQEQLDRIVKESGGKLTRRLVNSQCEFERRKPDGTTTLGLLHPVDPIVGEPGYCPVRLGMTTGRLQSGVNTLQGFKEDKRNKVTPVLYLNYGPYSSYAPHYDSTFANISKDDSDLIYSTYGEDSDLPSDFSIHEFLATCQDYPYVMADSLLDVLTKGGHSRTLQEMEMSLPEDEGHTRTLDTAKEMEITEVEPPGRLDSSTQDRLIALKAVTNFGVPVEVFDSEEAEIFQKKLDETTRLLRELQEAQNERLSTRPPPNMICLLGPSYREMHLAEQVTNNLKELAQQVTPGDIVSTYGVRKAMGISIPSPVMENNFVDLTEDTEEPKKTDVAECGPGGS
Here the recorded pKi is given for each entry.
// pKi here means minus log10 of the molar concentration (mol/L)

See these solved cases before continuing.
COc1ccc(-c2ccc3c(C)cc(=O)n(C)c3c2)c(C)n1 ... 6.77
COc1ccc(-c2ccc3c(C)cc(=O)n(C)c3c2)c(OC)n1 ... 5.89

Enquiry: Give reported pKi value for `COc1ccc(-c2cn(C)c(=O)c3ccccc23)c(OC)n1`
Return: 6.51

Enquiry: Give reported pKi value for `Cc1cc(C)cc(-c2cn(C)c(=O)c3ccccc23)c1`
Return: 6.07

* * *

biological target: Bromodomain-containing protein 7 (Homo sapiens); experiment: Binding affinity to N-terminal His TEV-tagged human recombinant BRD7 bromodomain expressed in Escherichia coli BL21(DE3) by microscale thermophoresis assay
Measurement Type: pKd
// pKd here means minus log10 of the molar concentration (mol/L)

COc1ccc(-c2ccc3c(C)cc(=O)n(C)c3c2)c(OC)n1 ... 5.66

# input for lookup
Enquiry: Give reported pKd value for `COc1ccc(-c2ccc3c(C)cc(=O)n(C)c3c2)c(C)n1`
Return: 5.92
